Reference source: ChEMBL document CHEMBL2093137

# Tested on: Schistosoma mansoni
# TEST: WHO-TDR: Schistosomiasis
# Format: functional
# Parameters: concentration or dose not given beside the values
Reported % Inhibition values for a set of molecules
PROPERTY: % Inhibition (%)

>>> print(df.to_string())
                                    molecule  reported_value
 0  C#CCn1/c(=N\C(=O)c2cc(C)no2)sc2cc(S(N)(=O)=O)ccc21             100
 1  COc1ccc(CCNC(=O)Cc2csc(SCc3ccc(C)cc3)n2)cc1OC               0
 2    Fc1ccc(Nc2nc(N3CCCC3)nc(N3CCCC3)n2)cc1               0
 3  COc1ccc(-c2nc(NC(=O)CSc3ccc(Cl)cc3)sc2C)cc1               0
 4  CCc1nnc(NS(=O)(=O)c2ccc(NC(=O)c3ccc(S(=O)(=O)N4CCCCC4C)cc3)cc2)s1 (stereo unspecified)               0
 5  O=C(CC1CSc2nccc(=O)n21)Nc1ccc(Cl)c(Cl)c1 (stereo unspecified)               0
 6        O=C(Nc1nnc(-c2ccc(Br)s2)o1)c1ccno1            16.7
 7  NC(=O)c1cc(-c2ccccc2)sc1NC(=O)C1COc2ccccc2O1 (stereo unspecified)              25
 8  O=C(CSc1nnc(NC(=O)COc2ccc(Cl)cc2)s1)NCC1CCCO1 (stereo unspecified)               0
 9  O=C(Nc1nc2c(s1)CSc1ccccc1-2)C1COc2ccccc2O1 (stereo unspecified)             100
10    CCn1ccnc1N1CCN(C(=O)c2cccc(OC)c2OC)CC1             8.3

###

# Tested on: Onchocerca ochengi
# TEST: WHO-TDR: Onchocerciasis;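 note: at 12.5 µM on microfilariae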
# Assay type: functional
# Design: concentration or dose not given beside the values
Measured % Inhibition by item
PROPERTY: % Inhibition (%)

>>> df
                                    molecule  reported_value
 0  COc1ccc(OC)c2sc(N(CC3CCCO3)C(=O)c3ccn(C)n3)nc12 (stereo unspecified)               0
 1  COc1ccc(Cl)cc1C(=O)NCCOc1ccc2nnc(-c3ccc(F)cc3)n2n1               0
 2  COc1cccc(-c2cn3c(C(=O)N4CCN(c5ccccc5OC)CC4)csc3n2)c1             100
 3  O=C(Nc1cccc(-c2ccc3nnc(-c4cccs4)n3n2)c1)c1c(F)cccc1F              50
 4  O=C(Cc1csc(NC(=O)c2ccc[nH]c2=O)n1)Nc1ccc2c(c1)OCCO2               0
 5  O=C(Cc1csc(NS(=O)(=O)c2ccc(Cl)cc2)n1)Nc1ccc(F)c(F)c1             100
 6  COc1cccc(NC(=O)NCCNc2ccc(Nc3cc(C)ccn3)nn2)c1             100
 7  CCOc1ccccc1NC(=O)Cn1c(=O)n(Cc2cccs2)c(=O)c2ncccc21             100
 8  Cc1cc(-c2nnc(NC(=O)C3CCCCN3S(=O)(=O)c3cccs3)o2)nn1C (stereo unspecified)             100
 9  O=C(CN1CCN(c2nccn2-c2cccc(Cl)c2)CC1)Nc1ccc(F)cc1F             100
10  CN(C)C(CNC(=O)c1ccc(-c2ccccc2)cc1)c1ccsc1 (stereo unspecified)               0
11  COc1ccc(CC(=O)N2CCN(c3nccn3-c3cccc(Cl)c3)CC2)cc1OC               0
12  O=C(c1ccc2c(c1)OCO2)C1C(=O)N(c2ccccc2)N=C1c1ccccc1 (stereo unspecified)             100
13  CC(C)CCN1C(=O)CCc2cc(NC(=O)c3cccc(Br)c3)ccc21             100
14  Cc1ccnc(Nc2ccc(N3CCN(C(=O)c4ccc(F)cc4)CC3)nn2)c1               0
15  COc1ccc2nc(-c3ccc(F)c(NC(=O)Cc4ccccc4)c3)cn2n1               0
16  CC1(C)Cc2cccc(OCCCS(=O)(=O)NCc3cccs3)c2O1             100
17  O=C(Nc1nc(-c2ccc3c(c2)OCCO3)cs1)C1CCN(S(=O)(=O)c2ccc(Cl)cc2)CC1              50
18  CC1CCN(C(C)CNC(=O)Nc2cccc(Cl)c2)CC1 (stereo unspecified)              50
19  COc1ccc(-c2ccc(=O)n(CCCNC(=O)Cc3ccc(F)cc3)n2)cc1             100
20  Cc1cccc(Nc2ccc(NCCNC(=O)Nc3ccccc3)nn2)n1             100

###

# Tested on: Onchocerca lienalis
# TEST: WHO-TDR: Onchocerciasis;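 note: at 12.5 µM on microfilariae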
# Type: functional
# Parameters: concentration or dose not given beside the values
PROPERTY: % Inhibition (%)

>>> print(df.to_string())
                                   compound         study_system  reported_value
0  COc1ccccc1N1CCN(C(CNS(=O)(=O)c2c(C)cc(C)cc2C)c2cccnc2)CC1 (stereo not given)  Onchocerca lienalis            86.7
1  COc1ccc(-c2nc(NC(=O)Cc3ccc(SC)cc3)sc2C)cc1  Onchocerca lienalis            45.5
2            O=C(Nc1nnc(S)s1)c1cc(Br)ccc1Cl  Onchocerca lienalis               0
3  Cc1ccc(NC(=O)c2oc3ccccc3c2NC(=O)CC(c2ccccc2)c2ccccc2)cc1C  Onchocerca lienalis               0
4  CCOC(=O)c1ccc(NC(=O)CSc2c(C)[nH]c3ccccc23)cc1  Onchocerca lienalis            46.7
5  O=C(CCCSc1ccccc1)N(Cc1ccncc1)c1nc2c(F)cccc2s1  Onchocerca lienalis               0
6  C#CCn1/c(=N/C(=O)CN2C(=O)c3ccccc3C2=O)sc2c3ccccc3ccc21  Onchocerca lienalis            13.3
7       N#Cc1ccsc1NC(=O)C(c1ccccc1)c1ccccc1  Onchocerca lienalis               0
8   O=C(O)CCCCCN1C(=O)/C(=C\c2ccccc2O)SC1=S  Onchocerca lienalis             6.7
9  CN1CCc2c(OCC(=O)N3N=C(c4cccs4)CC3c3ccc(F)cc3)cccc2C1=O (stereo not given)  Onchocerca lienalis               0

###

# Tested on: Brugia malayi
# TEST: WHO-TDR: Lymphatic Filariasis;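 note: tested at 10 µM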
# Type: functional
# Design: concentration or dose not given beside the values
We use 20% as the dividing line for % Inhibition: on or above the line is YES, below is NO.

In [3]: df
Out[3]:
                                    compound  answer_label
 0  CN1CCc2c(sc(NC(=O)C3COc4ccccc4O3)c2-c2nc3ccccc3s2)C1 (centres undefined)           YES
 1    O=C(Nc1nc2c(F)cc(F)cc2s1)c1nc2ccccc2s1           YES
 2      COc1ccc2nc(Nc3nc(-c4ccccn4)cs3)sc2c1           YES
 3  O=C(Nc1ccc(C(F)(F)F)cc1)N1CCN(Cc2nnnn2-c2ccccc2)CC1            NO
 4  CCOC(=O)c1sc(NC(=O)C(C)Sc2ncnc3ccccc23)c(C(=O)OCC)c1C (centres undefined)            NO
 5       COc1cccc2sc(Nc3nnc(-c4cccs4)o3)nc12           YES
 6  COc1ccc(Cl)cc1NC(=O)CSc1nccn1-c1cccc(C)c1C           YES
 7  CC(C)c1ccc2nc(Nc3nc4ccc(S(C)(=O)=O)cc4s3)sc2c1           YES
 8  Cc1c(Cl)ccc2sc(NC(=O)c3ccc(S(=O)(=O)N4CC(C)CC(C)C4)cc3)nc12 (centres undefined)           YES
 9         N#Cc1cnc2c(F)cccc2c1Nc1ccc(Br)cc1            NO
10  COc1cccc(C(=O)Nc2nnc(-c3ccc4c(c3)CCCC4)o2)c1           YES
11  CCOC(=O)c1ccc(NC(=O)CSc2c(C)[nH]c3ccccc23)cc1            NO
12  CCN1CCc2c(sc(NC(=O)c3ccc(S(=O)(=O)N4CC5(C)CC4CC(C)(C)C5)cc3)c2C(N)=O)C1 (centres undefined)            NO
13  COc1ccc(C(=O)C[n+]2cc(-c3ccc(OC)cc3)n3c2CCCCC3)cc1           YES
14             O=C(Nc1nccs1)c1ccc2c(c1)CCCC2           YES
15  COc1ccc(C(=O)Nc2nnc(SCC(=O)Nc3cc(C(F)(F)F)ccc3Cl)s2)cc1OC            NO
16  Cc1ccc(-n2ccnc2N2CCN(C(=O)c3ccccc3SC(F)F)CC2)cc1            NO
17  COc1ccccc1C(=O)NCCSc1c(-c2ccccc2)[nH]c2ccccc12           YES
18     O=C(Cc1cc(-c2ccc(Cl)cc2)on1)Nc1cccnc1            NO
